# target.entity: T1, recombinant mouse Clec4F (CLEC4F/CLECSF13), soluble extracellular domain Ala65-Gly548 (Mus musculus, UniProt P70194)
# T1 construct: Clec4F (C-type lectin domain family 4, member F), mouse, soluble extracellular domain Ala65-Gly548; the oligomeric state of the bought protein was not measured here; also called mClec4F; mouse Kupffer cell receptor Clec4F; source: bought: R&D Systems (NS0-derived, mouse myeloma cell line)
# test.description: SPR; Biacore T200; 400 RU of recombinant mouse Clec4F coupled to a CM5 chip; nanobodies flown at 30 ul/min at 1-400 nM; 1:1 binding model
# assay.conditions: both partners purified
quantity.kind: kon (M⁻¹ s⁻¹)
Answers are plain numbers, in M⁻¹ s⁻¹.

Previously resolved entries follow.
Nb10.21 (VHH, also called R2-21; group G10; source: E. coli WK6 periplasm, purified (IMAC Ni-NTA, dialysis)) VHH: QVQLVESGGGLVQAGGSLRLSCAASGRTFSSYNMGWFRQAPGKEREFVATISRNGAGTYYTDSVKGRFTISRDNAKNTVYLQMNNLKPEDSAAYYCAATQRVALSTITVGGYEYWGQGTQVTVSS : 4.62e+06
Nb6.18 (VHH, also called R3-18; group G6; source: E. coli WK6 periplasm, purified (IMAC Ni-NTA, dialysis)) VHH: DVQLGESGGGLVQPGGSLRLSCAASGFTFSSYAMRWVRQAPGKALEWVADINSSGAYTNYRDSVTGRFIISRDNVKNTLYLQMDNMKPEDTAVYYCTTGGQRGQGTQVTVSS : 1.48e+06

Provide each entry's kon from the list below.
1. Nb8.37 (VHH, Labelled with 99mTc through its His tag for the biodistribution test only; also called R3-37; group G8; source: E. coli WK6 periplasm, purified (IMAC Ni-NTA, dialysis; size exclusion chromatography for the later tests); not shown: His6, C-terminal, kept) VHH: QVQLVESGGGLVQPGGSLRLSCAASGLTLDYLRIAWFRQAPGKKRERVSCISITEGSANYADSVKGRFTISRDNAKNTVFLQMNSLKPEDTAVYYCAARRYYCSGTPTDYAYWGQGTQVTVSS
2. Nb6.3 (VHH, also called R3-3; group G6; source: E. coli WK6 periplasm, purified (IMAC Ni-NTA, dialysis)) VHH: QVQLVESGGGLVQPGGSLRLSCAASGFTFSSYAMRWVRQAPGKGLEWVSDINKGGSGTSYRDSVKGRFTISRDDAKNTLYLQMNSLKPEDTAVYYCTNGGSRGQGTQVTVSS

1. 1.57e+06
2. 2.87e+06
